Hello, the source for this data is ChEMBL document CHEMBL1128461, in case you need it.

experiment: Concentration of compound in Central nervous system; Not detectable; type: ADME, tissue-based

[
  {
    "molecule": "C[C@H](Cc1c[nH]cn1)N=C(c1ccccc1O)c1ccccc1O",
    "concentration in CNS": "Not detectable"
  },
  {
    "molecule": "C[C@H](Cc1c[nH]cn1)/N=C(/c1cc(F)ccc1O)c1cccc2ccccc12",
    "concentration in CNS": "Not detectable"
  },
  {
    "molecule": "C[C@@H]1Cc2[nH]cnc2C(c2ccccc2O)N1 (stereo partly drawn)",
    "concentration in CNS": "Not detectable"
  }
]

----------
assay: Conversion rate by hydrolysis of compound in plasma after 4 hr at a pH of 7.4; assay type: ADME, cell-free; conditions: pH 7.4, read-out: Conversion rate
Binary label based on metabolised at 4 h with cut-off 20%: below gives TRUE, not below gives FALSE.

Example cases with answers are listed next.
[
  {
    "chemical_structure": "C[C@H](Cc1c[nH]cn1)/N=C(\\c1ccc(Cl)cc1)c1cc(Cl)ccc1O",
    "category": "TRUE"
  },
  {
    "chemical_structure": "C[C@H](Cc1c[nH]cn1)/N=C(\\c1ccccc1)c1cc(Cl)ccc1O",
    "category": "FALSE"
  }
]

q: Given C[C@H](Cc1c[nH]cn1)/N=C(\c1ccc(F)cc1)c1cc(F)ccc1O , is recorded metabolised at 4 h strictly lower than 20%?
a: FALSE

q: Given C[C@H](Cc1c[nH]cn1)/N=C(/c1cc(F)ccc1O)c1cccc2ccccc12 , is recorded metabolised at 4 h strictly lower than 20%?
a: TRUE

q: Given C[C@H](Cc1c[nH]cn1)/N=C(\c1ccc(F)cc1)c1cc(Cl)ccc1O , is recorded metabolised at 4 h strictly lower than 20%?
a: FALSE

q: Given Cc1cc(O)c(/C(=N/[C@H](C)Cc2c[nH]cn2)c2ccccc2)cc1Cl , is recorded metabolised at 4 h strictly lower than 20%?
a: TRUE

q: Given COc1ccc(/C(=N/[C@H](C)Cc2c[nH]cn2)c2ccccc2)c(O)c1 , is recorded metabolised at 4 h strictly lower than 20%?
a: TRUE

----------
assay: Conversion rate by hydrolysis of compound […] after 2 hr at a pH of 1.0; format: ADME, cell-free; conditions: pH 1; read-out: Conversion rate
Binary label based on metabolised at 2 h with cut-off 20%: below gives true, not below gives false.

[
  {
    "compound": "C[C@H](Cc1c[nH]cn1)/N=C(\\c1ccccc1)c1cc(Cl)ccc1O",
    "category": "false"
  },
  {
    "compound": "Cc1cc(O)c(/C(=N/[C@H](C)Cc2c[nH]cn2)c2ccccc2)cc1Cl",
    "category": "true"
  },
  {
    "compound": "C[C@H](Cc1c[nH]cn1)/N=C(\\c1ccc(F)cc1)c1cc(Cl)ccc1O",
    "category": "false"
  },
  {
    "compound": "C[C@@H]1Cc2[nH]cnc2C(c2ccccc2O)N1 (stereo partly specified)",
    "category": "true"
  },
  {
    "compound": "C[C@H](Cc1c[nH]cn1)/N=C(\\c1ccc(Cl)cc1)c1cc(F)ccc1O",
    "category": "false"
  }
]

Then there is this compound:
q: Given COc1ccc(/C(=N/[C@H](C)Cc2c[nH]cn2)c2ccccc2)c(O)c1 , is recorded metabolised at 2 h strictly lower than 20%?
a: true

----------
Each entry below carries its recorded metabolised at 6 h.
test: Conversion rate by hydrolysis of compound in plasma after 6 hr.; type: ADME, cell-free; details: read-out: Conversion rate
Please give a number only; it is taken to be in %.

Would you please look over these solved cases?
[
  {
    "chemical_structure": "Cc1ccc(O)c(/C(=N/[C@H](C)Cc2c[nH]cn2)c2ccccc2)c1",
    "reported_result": 29
  },
  {
    "chemical_structure": "C[C@H](Cc1c[nH]cn1)/N=C(\\c1ccccc1)c1ccccc1O",
    "reported_result": 14
  },
  {
    "chemical_structure": "C[C@H](Cc1c[nH]cn1)/N=C(\\c1ccccc1)c1cc(Br)ccc1O",
    "reported_result": 31
  },
  {
    "chemical_structure": "Cc1cc(O)c(/C(=N/[C@H](C)Cc2c[nH]cn2)c2ccccc2)cc1Cl",
    "reported_result": 41
  },
  {
    "chemical_structure": "C[C@H](Cc1c[nH]cn1)/N=C(\\c1ccc(Cl)cc1)c1cc(F)ccc1O",
    "reported_result": 42
  }
]

q: Reported metabolised at 6 h, compound C[C@H](Cc1c[nH]cn1)/N=C(\c1ccc(Cl)cc1)c1cc(Cl)ccc1O : ____
a: 58

q: Reported metabolised at 6 h, compound C[C@H](Cc1c[nH]cn1)/N=C(\c1ccccc1)c1cc(Cl)ccc1O : ____
a: 33

q: Reported metabolised at 6 h, compound C[C@H](Cc1c[nH]cn1)/N=C(\c1ccc(Cl)cc1)c1ccccc1O : ____
a: 28

q: Reported metabolised at 6 h, compound C[C@H](Cc1c[nH]cn1)/N=C(\c1ccccc1)c1cc(F)ccc1O : ____
a: 24

----------
assay: Conversion rate by hydrolysis of compound in plasma after 6 hr.; assay type: ADME, cell-free; conditions: read-out: Conversion rate
measured_quantity: metabolised at 6 h (%)
Please give a number only; it is taken to be in %.

[
  {
    "chemical_structure": "C[C@H](Cc1c[nH]cn1)/N=C(\\c1ccc(F)cc1)c1cc(Cl)ccc1O",
    "reported_result": 40
  },
  {
    "chemical_structure": "C[C@H](Cc1c[nH]cn1)/N=C(\\c1ccc(F)cc1)c1ccccc1O",
    "reported_result": 26
  },
  {
    "chemical_structure": "C[C@H](Cc1c[nH]cn1)/N=C(/c1cc(F)ccc1O)c1cccc2ccccc12",
    "reported_result": 11
  },
  {
    "chemical_structure": "C[C@H](Cc1c[nH]cn1)/N=C(\\c1ccc(F)cc1)c1cc(F)ccc1O",
    "reported_result": 45
  }
]

Shifting focus to the compound that follows.
q: Reported metabolised at 6 h, compound C[C@H](Cc1c[nH]cn1)/N=C(\c1ccccc1)c1cc(F)cc(Cl)c1O : ____
a: 28

----------
test: Conversion rate by hydrolysis of compound in plasma after 4 hr at a pH of 7.4; assay type: ADME, cell-free; details: pH 7.4, read-out: Conversion rate
Each entry below carries its recorded metabolised at 4 h.
Please append the unit to your numeric answer.

[
  {
    "chemical_structure": "C[C@H](Cc1c[nH]cn1)/N=C(\\c1ccccc1)c1cc(Br)ccc1O",
    "metabolised at 4 h": "16.6%"
  }
]

q: Reported metabolised at 4 h, compound C[C@H](Cc1c[nH]cn1)/N=C(\c1ccc(Cl)cc1)c1cc(F)ccc1O : ____
a: 15.2%

q: Reported metabolised at 4 h, compound C[C@H](Cc1c[nH]cn1)/N=C(\c1ccccc1)c1cc(F)cc(Cl)c1O : ____
a: 19.6%

q: Reported metabolised at 4 h, compound C[C@H](Cc1c[nH]cn1)/N=C(\c1ccccc1)c1cc(F)ccc1O : ____
a: 15.4%

----------
experiment: Conversion rate by hydrolysis of compound […] after 2 hr at a pH of 1.0; assay type: ADME, cell-free; details: pH 1; read-out: Conversion rate
measured_quantity: metabolised at 2 h
Please append the unit to your numeric answer.

Would you please look over these solved cases?
[
  {
    "chemical_structure": "Cc1ccc(O)c(/C(=N/[C@H](C)Cc2c[nH]cn2)c2ccccc2)c1",
    "metabolised at 2 h": "11.9%"
  },
  {
    "chemical_structure": "C[C@H](Cc1c[nH]cn1)/N=C(/c1cc(F)ccc1O)c1cccc2ccccc12",
    "metabolised at 2 h": "0.2%"
  },
  {
    "chemical_structure": "C[C@H](Cc1c[nH]cn1)/N=C(\\c1ccc(F)cc1)c1cc(F)ccc1O",
    "metabolised at 2 h": "63.8%"
  },
  {
    "chemical_structure": "C[C@H](Cc1c[nH]cn1)/N=C(\\c1ccccc1)c1cc(F)cc(Cl)c1O",
    "metabolised at 2 h": "79.3%"
  },
  {
    "chemical_structure": "C[C@H](Cc1c[nH]cn1)/N=C(\\c1ccccc1)c1cc(Br)ccc1O",
    "metabolised at 2 h": "34.6%"
  },
  {
    "chemical_structure": "C[C@H](Cc1c[nH]cn1)/N=C(\\c1ccc(Cl)cc1)c1cc(Cl)ccc1O",
    "metabolised at 2 h": "62.7%"
  }
]

q: Reported metabolised at 2 h, compound C[C@H](Cc1c[nH]cn1)/N=C(\c1ccccc1)c1ccccc1O : ____
a: 14.1%

q: Reported metabolised at 2 h, compound C[C@H](Cc1c[nH]cn1)/N=C(\c1ccccc1)c1cc(F)ccc1O : ____
a: 30%

q: Reported metabolised at 2 h, compound C[C@H](Cc1c[nH]cn1)/N=C(\c1ccc(F)cc1)c1ccccc1O : ____
a: 20.1%

q: Reported metabolised at 2 h, compound C[C@H](Cc1c[nH]cn1)/N=C(\c1ccc(Cl)cc1)c1ccccc1O : ____
a: 18.3%
